target.entity: human α-thrombin (human, UniProt P00734 328-622)
method.summary: inhibition of α-thrombin hydrolysis of Sar-Pro-Arg-paranitroanilide; Ki from Ki,app by the procedure of Bieth
pKi: −log10 of the molar value.
observation.type: pKi

binder: RXPAF (HELM PEPTIDE1{[dR].[O=C([C@@H]1C[C@@H]2CCCC[C@@H]2N1[*:1])[*:2]].P.[dA].[O=C([C@H](Cc1ccc(I)cc1)N[*:1])[*:2]].[am]}$$$$V2.0; N-terminus assumed; SMILES C[C@@H](NC(=O)[C@@H]1CCCN1C(=O)[C@@H]1C[C@@H]2CCCC[C@@H]2N1C(=O)[C@H](N)CCCNC(=N)N)C(=O)N[C@@H](Cc1ccc(I)cc1)C(N)=O) [rOicPaF(p-I) (D-Arg-Oic-Pro-D-Ala-Phe(p-I))]
observation.type: pKi
reported.measurement: 5.19

binder: RXPSF (HELM PEPTIDE1{[dR].[O=C([C@@H]1C[C@@H]2CCCC[C@@H]2N1[*:1])[*:2]].P.[dS].[Cc1ccc(C[C@H](N[*:1])C(=O)[*:2])cc1].[am]}$$$$V2.0; N-terminus assumed; SMILES Cc1ccc(C[C@H](NC(=O)[C@@H](CO)NC(=O)[C@@H]2CCCN2C(=O)[C@@H]2C[C@@H]3CCCC[C@@H]3N2C(=O)[C@H](N)CCCNC(=N)N)C(N)=O)cc1) [rOicPsF(p-Me) (D-Arg-Oic-Pro-D-Ser-Phe(p-Me))]
observation.type: pKi
reported.measurement: 5.17

binder: RXPAF (HELM PEPTIDE1{[dR].[O=C([C@@H]1C[C@@H]2CCCC[C@@H]2N1[*:1])[*:2]].P.[dA].[Cc1ccc(C[C@H](N[*:1])C(=O)[*:2])cc1].[am]}$$$$V2.0; SMILES Cc1ccc(C[C@H](NC(=O)[C@@H](C)NC(=O)[C@@H]2CCCN2C(=O)[C@@H]2C[C@@H]3CCCC[C@@H]3N2C(=O)[C@H](N)CCCNC(=N)N)C(N)=O)cc1, also called H-r-Oic-P-a-F(p-Me)-NH2) [rOicPaF(p-Me) (D-Arg-Oic-Pro-D-Ala-Phe(p-Me))]
observation.type: pKi
reported.measurement: 5.18

binder: RXPAF (HELM PEPTIDE1{[dR].[O=C([C@@H]1C[C@@H]2CCCC[C@@H]2N1[*:1])[*:2]].P.[dA].[O=C([C@H](Cc1ccc(Br)cc1)N[*:1])[*:2]].[am]}$$$$V2.0; N-terminus assumed; SMILES C[C@@H](NC(=O)[C@@H]1CCCN1C(=O)[C@@H]1C[C@@H]2CCCC[C@@H]2N1C(=O)[C@H](N)CCCNC(=N)N)C(=O)N[C@@H](Cc1ccc(Br)cc1)C(N)=O) [rOicPaF(p-Br) (D-Arg-Oic-Pro-D-Ala-Phe(p-Br))]
observation.type: pKi
reported.measurement: 5.14

The measurements presented in this section are drawn from patent US7879792.
